- SYSTEM TESTED: T1, SARS-CoV-2 receptor binding domain, native (501N) (SARS-CoV-2, UniProt P0DTC2 330-532)
- T1 construct: range 330-532
- EXPERIMENT: BLI, RBD immobilised on AR2G biosensor, 1:1 fit
OBSERVED PROPERTY: pKd
pKd is a log-scale quantity: -log10 of the concentration expressed in molar.

Entry Fab of antibody 58 (Fab, V domains shown) VH: QVQLVESGGGLVQPGRSLRLSCAASGFTFDDYAMHWVRQPPGKGLEWVSGVSWNSGTIGYADSVKGRFIISRDNAKNSLYLQMNSLKAEDTALYYCAREVGGTFGVLISREGGLDYWGQGTLVTVSS VL: SYELTQPPSVSVAPGQTARITCGGNTIGSKSVHWYQQRPGQAPVLVVYDDSDRPSGIPERFSGSNSGNTATLTISRVEAGDEADYYCQVWDSSSDRVVFGGGTKLTVL : reported pKd = ? 9.52

Entry Fab of antibody 398 (Fab, V domains shown) VH: QVQLVESGGGLVQPGGSLRLSCAASGFTVSSNYMTWVRQAPGKGLEWVSVIYSGGSTYYADSVKGRFTISRDNSKNTLYLQMNSLRADDTAVYYCARDSTADYDFWSGYYVGAFHIWGQGTMVTVSS VL: QTVLTQPASVSGSPGQSITISCTGTSSDVGGYNYVSWYQQHPGKAPKLMIYEVTKRPSGVPDRFSGSKSGNTASLTVSGLQAEDEADYYCSSYAGSNNWVFGGGTKLTVL : reported pKd = ? 8.99

Entry Fab of antibody 222 (Fab, V domains shown) VH: EVQLVESGGGLIQPGGSLRLSCAASGLTVSSNYMSWVRQAPGKGLEWVSVIYSGGSTFYADSVKGRFTISRDNSKNTLYLQMNSLGAEDTAVYYCARGEGSPGNWFDPWGQGTLVTVSS VL: DVVMTQSPGTLSLSPGERATLSCRASQSVPSSYLAWYQQKPGQAPRLLIYGASTRATGIPDRFSGSGSGTDFTLTISRLEPEDFAVYYCQHYDTSPRFGGGTKVDIK : reported pKd = ? 9.54

Entry Fab of antibody 318 (Fab, V domains shown) VH: QVQLVQSGPEVKKPGTSVKVSCKASGFTLTSSAMQWVRQARGQRLEWIGWIVVGSGNTNYAQKFQERVTITRDMSTSTAYMELSSLRSEDTAVYYCAAGRGYNSDFDYWGQGTLVTVSS VL: AIRMTQSPGTLSLSPGERATLSCRASQSVSSSYLAWYQQRPGQAPRLLIYGTSSRATGIPDRFSGSGSGTDFTLTISRLEPEDFAVYYCQQYGYSVYTFGQGTKVDIK : reported pKd = ? 8.65

From: patent US20240043507A1
